Test: 384-well plate pilot, post-Golgi transport modulator project, inhibition of yeast transport mutant growth (AID 636)
Conditions: absorbance 615 nm, about 18 h, hits give high values
Active and inactive are the calls of the source. Rule as the data show it: active = inhibition above about 31%; inactive = the rest.
Assay metric: inhibition

>>> result("COc1ccc(CCn2c(=N)c(C(=O)NCc3ccco3)cc3c(=O)n4ccccc4nc32)cc1")
"-6.76% (inactive)"
>>> result("COC(=O)CN(c1ccc(F)cc1)S(=O)(=O)c1ccccc1")
"0.13% (inactive)"
>>> result("N#CC1=C(SCC(=O)NC23CC4CC(CC(C4)C2)C3)NC(=O)C(C#N)C12CCCCC2 (stereo not given)")
"-5.48% (inactive)"
>>> result("Cc1nn(Cc2ccccc2)c(C)c1NC(=O)CCC(=O)O")
"3.42% (inactive)"
>>> result("CCOc1nc(OCC)nc(N2CCC(C)CC2)n1")
"-5% (inactive)"
>>> result("CCOC(=O)c1cc2c(=O)n3cccc(C)c3nc2n(CC2CCCO2)c1=NC(C)=O (stereo not given)")
"-5.14% (inactive)"
>>> result("CC(C)C(c1nnnn1C1CCCC1)N1CCN(C(=O)c2ccco2)CC1 (stereo not given)")
"-1.82% (inactive)"
>>> result("c1cc2c(cc1C1=Nn3c(nnc3C3CCCCC3)SC1)OCO2")
"-1.84% (inactive)"
>>> result("COc1ccccc1NC(=O)N(Cc1ccco1)Cc1cc2cccc(C)c2[nH]c1=O")
"-8.27% (inactive)"
>>> result("O=C(Nc1ccc2oc(Cc3ccc(Cl)cc3)nc2c1)c1cccnc1")
"-1.73% (inactive)"
>>> result("CCCCCCC(=O)c1c(C)[nH]c(C(=O)OCC)c1C")
"-5.73% (inactive)"
>>> result("CCn1c(CSc2nc(C)cc(C)n2)nnc1SCC(=O)Nc1ccccc1")
"-4.27% (inactive)"
>>> result("CC(C)N(Cc1nc(-c2ccccc2)no1)C(=O)CCCN1C(=O)c2ccccc2C1=O")
"-3.12% (inactive)"
>>> result("COc1ccc(N2CCN(CCNS(=O)(=O)c3cccc4nsnc34)CC2)cc1")
"-5.2% (inactive)"
>>> result("CCc1cccc(NC(=O)CN(C)S(=O)(=O)c2cccc3nsnc23)c1")
"-5.68% (inactive)"
>>> result("CC(C)(C)C(=O)NC1CCN(C(=O)N2CCCC2)CC1")
"-8.24% (inactive)"
>>> result("Cc1cc(C)nc(SCCS(=O)Cc2ccc(Cl)cc2)n1 (stereo not given)")
"-2.34% (inactive)"
>>> result("O=C1c2ccccc2C(=O)N1CCN1CCCCC1")
"3.38% (inactive)"
>>> result("COc1ccc2c(C)nc(Nc3nc(C)cc(C)n3)nc2c1")
"-6.08% (inactive)"
>>> result("C[C@]12CC[C@@H]3c4ccc(O)cc4CC[C@H]3[C@@H]1CCC2=O")
"-1.56% (inactive)"
>>> result("Nc1nnc(Cc2ccc(Cl)cc2)s1")
"-6.18% (inactive)"
>>> result("C=CCNC(=O)c1ccc(Cl)cc1Cl")
"-3.9% (inactive)"
>>> result("Cn1c(=O)n(C)c2cc(NC(=O)C(F)(F)F)ccc21")
"-0.92% (inactive)"
>>> result("Cc1cccc2cc(CN(Cc3nnnn3C3CCCC3)C3CCCCC3)c(=O)[nH]c12")
"-1.71% (inactive)"
>>> result("COc1ccccc1NC(=O)CC(NCc1ccccc1)C(=O)O (stereo not given)")
"-7.43% (inactive)"
>>> result("CCOC(=O)CSc1nc2ccccc2c(=O)n1NC(=O)c1ccccc1")
"-3.29% (inactive)"
>>> result("CCOC(=O)C1CCN(c2cc(C)nc3cc(-c4cccc(F)c4)nn23)CC1")
"-3.78% (inactive)"
>>> result("COc1cccc(NC(=O)c2ccccc2NS(C)(=O)=O)c1")
"-5.89% (inactive)"
>>> result("CCOc1cc(S(=O)(=O)NCc2ccc3c(c2)OCO3)ccc1F")
"-4.8% (inactive)"
>>> result("O=C(CSc1nnc(-c2ccccc2)o1)NC1CCCCC1")
"-7.12% (inactive)"
>>> result("CNC(=O)CSc1nc2c(c(=O)n(C)c(=O)n2C)n1Cc1ccc(C)cc1")
"-2% (inactive)"
>>> result("Cc1ccc(N2CCN(c3ccc(C)cc3)C(CC(=O)O)C2=O)cc1 (stereo not given)")
"-5.89% (inactive)"
>>> result("COc1ccc(CCNC(=O)CSCc2n[nH]c(=O)[nH]2)cc1OC")
"-10.7% (inactive)"
>>> result("COc1ccc(-n2ncc3c(NCc4ccc5c(c4)OCO5)ncnc32)cc1")
"-3.55% (inactive)"
>>> result("O=C1[C@@H]2C(c3ccccc3Cl)=NO[C@@H]2C(=O)N1Cc1ccccc1")
"-6.76% (inactive)"
>>> result("Cn1c(=O)n(Cc2ccccc2)c(=O)c2c1nc(NCC1CCCO1)n2Cc1ccccc1 (stereo not given)")
"0.79% (inactive)"
>>> result("CCOC(=O)c1cc(C(C)(C)C)oc1CN")
"-7.12% (inactive)"
>>> result("O=C(Cn1nnc2c(cnn2-c2ccc(F)cc2)c1=O)c1ccccc1F")
"-3.64% (inactive)"
>>> result("CCc1cc2c(=O)c(-c3cscn3)coc2cc1O")
"-1.32% (inactive)"
>>> result("COCCOC(=O)C1=C(C)NC(C)=C(C(=O)OC(C)C)C1c1cccc([N+](=O)[O-])c1 (stereo not given)")
"1.56% (inactive)"
>>> result("CCC(C)(C)NC(=O)CN(C(=O)c1snc(C(N)=O)c1N)c1ccc2c(c1)OCO2")
"-4.93% (inactive)"
>>> result("CCOc1ccc(-c2cn(S(=O)(=O)c3cccc4nsnc34)nc2N)cc1")
"34.9% (active)"
>>> result("COc1ccc2c(c1OC)C(=O)O[C@@H]2[C@H]1c2c(cc3c(c2OC)OCO3)CCN1C")
"-6.36% (inactive)"
>>> result("Cc1c(C(=O)Nc2ccncc2)oc2c1C(=O)CC(C)(C)C2")
"-8.4% (inactive)"
>>> result("Cc1cnc(C(=O)Nc2nnc(C(C)C)s2)cn1")
"-0.26% (inactive)"

Measured values drawn from PubChem BioAssay for this set.
